# Target desc: MnMT4
# Procedure summary: biolayer interferometry
Measurement type: Kd (µM)

a = Nc1ncnc2c1ncn2[C@@H]1O[C@H](CSCC[C@H](N)C(=O)O)[C@@H](O)[C@H]1O
b = C[S+](CC[C@H](N)C(=O)[O-])C[C@H]1O[C@@H](n2cnc3c(N)ncnc32)[C@H](O)[C@@H]1O (some centres unmarked)
Prompt: Between the two listed entries a and b , which has its Kd at the higher number? Use the label to indicate which entry you chose.
Response: b
(b: 18.4 µM, a: 0.0291 µM)
